test system: Shigella sonnei ATCC 11060; test: minimal inhibitory concentration, two-fold agar dilution; assay type: cell-based; conditions: ATCC11060, Muller-Hinton agar, 37°C, 20 hours, read-out: MIC values against the standard strains
Each record here notes measured MIC.
Write your answer as a measured quantity: the number, then the unit.

Recorded results for 5 compounds are shown here.
* CCO/N=C(\C(=O)N[C@@H]1C(=O)N2C(C(=O)[O-])=C(CSc3nc(N)c4ccccc4[n+]3C)CS[C@H]12)c1csc(N)n1 [Example 29] | 0.25 µg/mL
* CN(C)c1cc(N)nc(SCC2=C(C(=O)[O-])N3C(=O)[C@@H](NC(=O)/C(=N\OC(C)(C)C(=O)O)c4csc(N)n4)[C@H]3SC2)[n+]1C [Example 50] | 0.063 µg/mL
* CCO/N=C(\C(=O)N[C@@H]1C(=O)N2C(C(=O)[O-])=C(CSc3nc(N)c4ccoc4[n+]3C)CS[C@H]12)c1csc(N)n1 [Example 33] | 0.13 µg/mL
* CCO/N=C(\C(=O)N[C@@H]1C(=O)N2C(C(=O)[O-])=C(CSc3nc(N)cc(NC)[n+]3C)CS[C@H]12)c1csc(N)n1 [Example 36] | 0.063 µg/mL
* CC(C)(O/N=C(\C(=O)N[C@@H]1C(=O)N2C(C(=O)[O-])=C(CSc3nc(N)c(N)c[n+]3N)CS[C@H]12)c1csc(N)n1)C(=O)O [Example 47] | 0.031 µg/mL

# lookup: MIC of CCO/N=C(\C(=O)N[C@@H]1C(=O)N2C(C(=O)[O-])=C(CSc3nc(N)cc[n+]3N)CS[C@H]12)c1csc(N)n1 [Example 42]
0.25 µg/mL

# lookup: MIC of CCO/N=C(\C(=O)N[C@@H]1C(=O)N2C(C(=O)[O-])=C(CSc3nc(N)cc[n+]3CC)CS[C@H]12)c1csc(N)n1 [Example 14]
0.25 µg/mL

###

Tested on: Acinetobacter calcoaceticus ATCC 15473
Assay: minimal inhibitory concentration, two-fold agar dilution
Type: cell-based
Details: ATCC15473, Muller-Hinton agar, 37°C, 20 hours, read-out: MIC values against the standard strains
Experimental: These MIC values were taken by employing a two-fold dilution method: that is, two-fold serial dilutions of each of the test compounds were made and dispersed in a Muller-Hinton agar medium; 2µl of the standard test strain which had the 10⁷ CFU(Colony Forming Unit) per ml was inoculated on the medium; and these were incubated at 37°C for 20 hours.
Each record here notes measured MIC.
Quick reminder: number only, in µg/mL, skip the unit.

Recorded results for 2 compounds are shown here.
* CC(C)(O/N=C(\C(=O)N[C@@H]1C(=O)N2C(C(=O)[O-])=C(CSc3nc(N)c(N)c[n+]3N)CS[C@H]12)c1csc(N)n1)C(=O)O | 16
* CCO/N=C(\C(=O)N[C@@H]1C(=O)N2C(C(=O)[O-])=C(CSc3nc(N)cc(OCC(=O)O)[n+]3C)CS[C@H]12)c1csc(N)n1 | 16

--- query ---
# lookup: MIC of "CCO/N=C(\C(=O)N[C@@H]1C(=O)N2C(C(=O)[O-])=C(CSc3nc(N)cc(NC)[n+]3C)CS[C@H]12)c1csc(N)n1"
4

###

test system: Shigella sonnei ATCC 11060; experiment: minimal inhibitory concentration, two-fold agar dilution; type: cell-based; conditions: ATCC11060, Muller-Hinton agar, 37°C, 20 hours, read-out: MIC values against the standard strains
Each record here notes measured MIC.

Recorded results for 2 molecules are shown here.
• CCO/N=C(\C(=O)N[C@@H]1C(=O)N2C(C(=O)[O-])=C(CSc3nc(N)c(N)c(N)[n+]3CC)CS[C@H]12)c1csc(N)n1 = 0.5 µg/mL
• CCO/N=C(\C(=O)N[C@@H]1C(=O)N2C(C(=O)[O-])=C(CSc3nc(N)c(N)c[n+]3N)CS[C@H]12)c1csc(N)n1 = 0.031 µg/mL

--- query ---
# lookup: MIC of "C[n+]1c(SCC2=C(C(=O)[O-])N3C(=O)[C@@H](NC(=O)/C(=N\O)c4csc(N)n4)[C@H]3SC2)nc(N)c(N)c1N"
0.25 µg/mL

###

tested on: Shigella sonnei ATCC 11060; assay: minimal inhibitory concentration, two-fold agar dilution; type: cell-based; details: ATCC11060, Muller-Hinton agar, 37°C, 20 hours, read-out: MIC values against the standard strains
Each record here notes measured MIC.
Quick reminder: number only, in µg/mL, skip the unit.

* CO/N=C(\C(=O)N[C@@H]1C(=O)N2C(C(=O)[O-])=C(CSc3nc(N)c(N)c(N)[n+]3C)CS[C@H]12)c1csc(N)n1 | 0.13
* COc1cc(N)nc(SCC2=C(C(=O)[O-])N3C(=O)[C@@H](NC(=O)/C(=N\OC(C)(C)C(=O)O)c4csc(N)n4)[C@H]3SC2)[n+]1C | 0.13
* C[n+]1c(SCC2=C(C(=O)[O-])N3C(=O)[C@@H](NC(=O)/C(=N\OC(C)(C)C(=O)O)c4csc(N)n4)[C@H]3SC2)nc(N)c2ccoc21 | 0.13
* CCO/N=C(\C(=O)N[C@@H]1C(=O)N2C(C(=O)[O-])=C(CSc3nc(N)c(N)c(N)[n+]3C)CS[C@H]12)c1csc(N)n1 | 0.25
* C[n+]1c(SCC2=C(C(=O)[O-])N3C(=O)[C@@H](NC(=O)/C(=N\OC(C)(C)C(=O)O)c4csc(N)n4)[C@H]3SC2)nc(N)c(N)c1N | 0.13

--- query ---
# lookup: MIC of "CCO/N=C(\C(=O)N[C@@H]1C(=O)N2C(C(=O)[O-])=C(CSc3nc(N)c4cccnc4[n+]3C)CS[C@H]12)c1csc(N)n1"
0.25

###

Each record here notes measured MIC.
tested on: Staphylococcus epidermidis ATCC 12228; test: minimal inhibitory concentration, two-fold agar dilution; assay type: cell-based; conditions: ATCC12228, Muller-Hinton agar, 37°C, 20 hours, read-out: MIC values against the standard strains
Quick reminder: number only, in µg/mL, skip the unit.

- CCO/N=C(\C(=O)N[C@@H]1C(=O)N2C(C(=O)[O-])=C(CSc3nc(N)c(N)c(N)[n+]3CC)CS[C@H]12)c1nsc(N)n1 [Example 15]: 0.25
- Cc1c[n+](N)c(SCC2=C(C(=O)[O-])N3C(=O)[C@@H](NC(=O)/C(=N\OC(C)(C)C(=O)O)c4csc(N)n4)[C@H]3SC2)nc1N [Example 57]: 2

--- query ---
# lookup: MIC of CC(C)(O/N=C(\C(=O)N[C@@H]1C(=O)N2C(C(=O)[O-])=C(CSc3nc(N)c(N)c[n+]3N)CS[C@H]12)c1csc(N)n1)C(=O)O [Example 47]
2

###

Each record here notes measured MIC.
test system: Escherichia coli ATCC 10536; assay: minimal inhibitory concentration, two-fold agar dilution; assay type: cell-based; details: ATCC10536, Muller-Hinton agar, 37°C, 20 hours, read-out: MIC values against the standard strains
Quick reminder: number only, in µg/mL, skip the unit.

• CC[n+]1ccc(N)nc1SCC1=C(C(=O)[O-])N2C(=O)[C@@H](NC(=O)/C(=N\OC(C)(C)C(=O)O)c3csc(N)n3)[C@H]2SC1 [Example 12] = 0.063
• CC[n+]1c(SCC2=C(C(=O)[O-])N3C(=O)[C@@H](NC(=O)/C(=N\OC(C)(C)C(=O)O)c4csc(N)n4)[C@H]3SC2)nc(N)c(N)c1N [Example 11] = 0.031

--- query ---
# lookup: MIC of CCO/N=C(\C(=O)N[C@@H]1C(=O)N2C(C(=O)[O-])=C(CSc3nc(N)cc(NC)[n+]3C)CS[C@H]12)c1csc(N)n1 [Example 36]
0.031

###

Each record here notes measured MIC.
Tested on: Escherichia coli ATCC 10536
Assay: minimal inhibitory concentration, two-fold agar dilution
Format: cell-based
Settings: ATCC10536, Muller-Hinton agar, 37°C, 20 hours, read-out: MIC values against the standard strains
Method: These MIC values were taken by employing a two-fold dilution method: that is, two-fold serial dilutions of each of the test compounds were made and dispersed in a Muller-Hinton agar medium; 2µl of the standard test strain which had the 10⁷ CFU(Colony Forming Unit) per ml was inoculated on the medium; and these were incubated at 37°C for 20 hours.
Write your answer as a measured quantity: the number, then the unit.

* Nc1cc[n+](N)c(SCC2=C(C(=O)[O-])N3C(=O)[C@@H](NC(=O)/C(=N\OCC(=O)O)c4csc(N)n4)[C@H]3SC2)n1 [Example 75] | 0.016 µg/mL
* CCO/N=C(\C(=O)N[C@@H]1C(=O)N2C(C(=O)[O-])=C(CSc3nc(N)c(N)c(N)[n+]3C)CS[C@H]12)c1nsc(N)n1 [Example 5] | 0.063 µg/mL
* C[n+]1c(SCC2=C(C(=O)[O-])N3C(=O)[C@@H](NC(=O)/C(=N\O)c4csc(N)n4)[C@H]3SC2)nc(N)c(N)c1N [Example 9] | 0.031 µg/mL

# lookup: MIC of C[n+]1cc(-c2ccccc2)c(N)nc1SCC1=C(C(=O)[O-])N2C(=O)[C@@H](NC(=O)/C(=N\OC(C)(C)C(=O)O)c3csc(N)n3)[C@H]2SC1 [Example 21]
0.13 µg/mL

# lookup: MIC of C[n+]1c(SCC2=C(C(=O)[O-])N3C(=O)[C@@H](NC(=O)/C(=N\OC(C)(C)C(=O)O)c4csc(N)n4)[C@H]3SC2)nc(N)c(N)c1N [Example 1]
0.13 µg/mL

# lookup: MIC of C[C@@H](O/N=C(\C(=O)N[C@@H]1C(=O)N2C(C(=O)[O-])=C(CSc3nc(N)c(N)c(N)[n+]3C)CS[C@H]12)c1csc(N)n1)C(=O)O [Example 82-b]
0.031 µg/mL

Data provenance: patent EP0584797A2
